- system-tested: native CB1 receptors (Rattus norvegicus, UniProt P20272)
- Sequence (P20272 whole entry): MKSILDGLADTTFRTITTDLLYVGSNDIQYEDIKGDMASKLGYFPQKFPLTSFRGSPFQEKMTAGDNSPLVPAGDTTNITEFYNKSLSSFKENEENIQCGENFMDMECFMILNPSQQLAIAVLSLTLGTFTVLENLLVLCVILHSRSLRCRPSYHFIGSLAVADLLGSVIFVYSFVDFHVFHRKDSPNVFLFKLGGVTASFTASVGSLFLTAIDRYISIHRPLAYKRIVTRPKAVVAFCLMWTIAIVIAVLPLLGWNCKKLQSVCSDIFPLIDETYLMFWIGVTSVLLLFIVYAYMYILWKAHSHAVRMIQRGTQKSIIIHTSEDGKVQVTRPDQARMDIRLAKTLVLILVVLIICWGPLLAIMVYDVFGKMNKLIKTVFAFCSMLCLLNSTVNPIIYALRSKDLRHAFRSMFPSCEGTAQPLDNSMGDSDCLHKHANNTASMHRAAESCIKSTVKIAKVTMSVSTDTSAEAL
- test-method-notes: CB1 receptor rat binding assay ([3H]SR141716A, rat brain membranes)
- test-settings: rat brain membranes, [3H]SR141716A; read-out: Binding rat pKi (converted)
endpoint: Ki (nM)
Answer in nM, number only, no unit symbol.

[
  {
    "compound": "CCCCNC(=O)c1ccc2c(c1)N=C(c1ccc(OC)cc1)c1ccccc1S2 [drawing 1532]",
    "unit-abbreviation": "nM",
    "observed-result": 10
  },
  {
    "compound": "CCCC1=Nc2cc(C(=O)NCc3ccccc3Cl)ccc2Sc2ccccc21 [drawing 1427]",
    "unit-abbreviation": "nM",
    "observed-result": 39.8
  },
  {
    "compound": "CCCCNC(=O)c1ccc2c(c1)N=C(c1cccc(Cl)c1)c1cc(Cl)ccc1S2 [drawing 1235]",
    "unit-abbreviation": "nM",
    "observed-result": 15.8
  },
  {
    "compound": "O=C(NCCc1cccc(Cl)c1)c1ccc2c(c1)N=C(c1ccc(Cl)cc1)c1ccccc1S2 [drawing 1283]",
    "unit-abbreviation": "nM",
    "observed-result": 20
  },
  {
    "compound": "COc1ccc(C2=Nc3cc(C(=O)NCc4cccnc4)ccc3Sc3ccccc32)cc1 [drawing 1438]",
    "unit-abbreviation": "nM",
    "observed-result": 50.1
  },
  {
    "compound": "COc1ccc(C2=Nc3cc(C(=O)NN4[C@H](C)CCC[C@@H]4C)ccc3Sc3ccccc32)cc1 [drawing 1432]",
    "unit-abbreviation": "nM",
    "observed-result": 6.31
  },
  {
    "compound": "O=C(NCc1ccco1)c1ccc2c(c1)N=C(c1cccc(Cl)c1)c1ccccc1S2 [drawing 1448]",
    "unit-abbreviation": "nM",
    "observed-result": 7.94
  },
  {
    "compound": "O=C(NCCCC(F)(F)F)c1ccc2c(c1)N=C(c1ccc(Cl)cc1)c1ccccc1S2 [drawing 1226]",
    "unit-abbreviation": "nM",
    "observed-result": 0.631
  },
  {
    "compound": "O=C(NC1CCCC1)c1ccc2c(c1)N=C(c1ccc(F)cc1)c1ccccc1S2 [drawing 1268]",
    "unit-abbreviation": "nM",
    "observed-result": 20
  },
  {
    "compound": "Cc1csc(CNC(=O)c2ccc3c(c2)N=C(c2ccc(F)cc2)c2ccccc2S3)c1 [drawing 1430]",
    "unit-abbreviation": "nM",
    "observed-result": 50.1
  }
]

Quick one: Ki of O=C(NNCC(F)(F)F)c1ccc2c(c1)N=C(c1cccc(Cl)c1)c1ccccc1S2 [drawing 1467] ?
50.1

Consider the compound shown here: O=C(NCc1ccccc1)c1ccc2c(c1)N=C(c1ccccc1F)c1ccccc1S2 [drawing 1365] What is its recorded Ki?
31.6

# get_value(readout='Ki', item= O=C(NC1CCC(F)(F)CC1)c1ccc2c(c1)N=C(c1ccc(Cl)cc1F)c1ccccc1S2 )
1

Could you tell me which Ki is on file for CC(C)CNC(=O)c1ccc2c(c1)N=C(c1ccc(F)cn1)c1ccccc1S2 [drawing 1254] ?
15.8

Param item = CCCC1=Nc2cc(C(=O)NCCCc3ccccc3)ccc2Sc2ccccc21 [drawing 1357] ; retrieve measured Ki.
31.6
